MEASURED ON: c-Src SH2
METHOD DESCRIPTION: SH2 binding enrichment of the phosphorylated peptide, bacterial display (enrichment ratio); higher = better substrate or ligand; peptides without Tyr show the background;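 further: peptide library displayed on the E. coli surface as eCPX fusions, selected cells deep-sequenced, score is each peptide's frequency after selection divided by its frequency in the input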
MEASURE NAME: SH2 binding enrichment

The following sequences have reported results that may help.
>>> print(df.to_string())
                       biosequence  measured_value
0   KNNDGNIDYAE [MCFD2_Y135_Y135N]           0.694
1     TKDTFYQQPMF [GBA_Y451_K452Q]           0.902
2       KGSEGYLAATF [NF1_Y2503_YF]           0.474
3       RDGDRYFKGIV [DCX_Y64_N60D]           0.537
4  ELCSEYHKSRK [SPINK5_Y440_R441H]           0.484

I = LNSFIYSLRNR [OR1A1_Y288_P285S]
II = QLYGAYLRIHA [BSCL2_Y213]
// max by SH2 binding enrichment over [ I , II ] Please reply using the label of the selected record.
II

Entry source: the supplement of paper PMC10065799
